test system: Q461 (HIV pseudotype, Env pQ461.e2); conditions: Q461 (R5, subtype A); TZM-bl, peptide 1 h before and during infection, luciferase read-out 48 h after infection; duplicates
Ends that are not written are not given here.
Reported EC50 by item:

- substance: "LCDCPNGPWVWVPAFCQAVGGGGSWILEYLWKVPFDFWRGVI-NH2 (cysteines drawn unpaired) [DT-P1]"
  EC50: "24.5 µM"
- substance: "WILEYLWKVPFDFWRGVIGGGSLCDCPNGPWVWVPAFCQAVG-NH2 (cysteines drawn unpaired) [DT-P2]"
  EC50: "24.5 µM"
